Target: HuPP5 H129A (Homo sapiens, UniProt P53041, H304A)
Construct: 6xHis (N)
Sequence (P53041 whole entry H304A): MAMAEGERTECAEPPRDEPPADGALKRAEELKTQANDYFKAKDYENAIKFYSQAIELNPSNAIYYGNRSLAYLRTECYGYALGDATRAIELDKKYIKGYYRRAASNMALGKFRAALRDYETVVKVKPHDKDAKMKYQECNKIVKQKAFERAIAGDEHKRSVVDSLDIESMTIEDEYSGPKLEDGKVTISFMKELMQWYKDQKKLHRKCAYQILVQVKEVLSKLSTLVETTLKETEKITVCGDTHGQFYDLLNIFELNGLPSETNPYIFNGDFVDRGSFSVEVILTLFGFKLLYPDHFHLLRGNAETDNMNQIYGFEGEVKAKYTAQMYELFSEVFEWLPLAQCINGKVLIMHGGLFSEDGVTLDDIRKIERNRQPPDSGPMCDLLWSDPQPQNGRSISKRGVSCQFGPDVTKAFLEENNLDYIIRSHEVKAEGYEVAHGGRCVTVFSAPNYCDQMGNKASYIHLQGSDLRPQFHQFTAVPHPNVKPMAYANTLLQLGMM
Experiment: Inhibition of recombinant HuPP5 mutant H129A (p-NPP substrate)
Settings: recombinant HuPP5 H129A; p-NPP
# IC50 listing for each entry below

>  <compound>
C[C@@]12C(=O)OC(=O)[C@]1(C)[C@H]1CC[C@@H]2O1 [Cantharidin, cantharidin]

>  <IC50>
> 10 mM

$$$$
>  <compound>
O=C(O)[C@@H]1[C@H](C(=O)O)[C@H]2CC[C@@H]1O2 [Endothall, endothall]

>  <IC50>
> 10 mM

$$$$
>  <compound>
O=C1OC(=O)[C@H]2[C@@H]1[C@@H]1CC[C@H]2O1 [Norcantharidin, norcantharidin]

>  <IC50>
> 10 mM

$$$$
